Can you tell me activity change, negative = inhibition for the items I'm about to list?
# TEST NAME: fluconazole-resistant Candida strain growth inhibitors – CaCi-8 strain, dry powder, set 4, dose response (AID 488950)
# PROTOCOL CONDITIONS: C. albicans CaCi-8 + fluconazole, Alamar Blue growth, 48 h; at 26 µM (top of the series)
Results filed as inconclusive are left out.
Give a bare numeral; the unit % is implied.

Query :: Please give the measured activity change, negative = inhibition for this compound: `O=C(c1ccc(Cl)cc1)N1CCN(c2cc(C(F)(F)F)nc3ccccc23)CC1`
Result :: -54.5

Query :: Please give the measured activity change, negative = inhibition for this compound: `O=C(c1ccc(Cl)cc1)N1CCN(c2ccncc2)CC1`
Result :: -2.65

Query :: Please give the measured activity change, negative = inhibition for this compound: `Clc1ccc2c(N3CCNCC3)ccnc2c1`
Result :: 7.46

Query :: Please give the measured activity change, negative = inhibition for this compound: `O=S(=O)(c1ccc(Cl)cc1)N1CCN(c2ccnc3cc(Cl)ccc23)CC1`
Result :: -2.18

Query :: Please give the measured activity change, negative = inhibition for this compound: `COc1cccnc1N1CCN(C(=O)c2ccc(Cl)cc2)CC1`
Result :: -25

Query :: Please give the measured activity change, negative = inhibition for this compound: `Cc1cc(N2CCN(C(=O)c3ccc(Cl)cc3)CC2)c2ccccc2n1`
Result :: 6.54

Query :: Please give the measured activity change, negative = inhibition for this compound: `O=C(c1ccc(Cl)cc1)N1CCNCC1`
Result :: 4.63

Query :: Please give the measured activity change, negative = inhibition for this compound: `CC(C)C(=O)N1CCN(c2ccnc3cc(Cl)ccc23)CC1`
Result :: -25.6

Query :: Please give the measured activity change, negative = inhibition for this compound: `COc1cccc2c(N3CCN(C(=O)c4ccc(Cl)cc4)CC3)cc(C)nc12`
Result :: -22.9
